System: Staphylococcus aureus
Test Name: Antibacterial activity against methicillin-susceptible Staphylococcus aureus Smith in mouse dosed iv 1 hr after infection
Format: functional
Metric: ED50 (mg/kg)
Hi! Could you send only the number? It should be in mg/kg, unit omitted.

Ask: Hello, please tell me recorded ED50 for this one: "CN(C)c1ccc(O)c2c1C[C@H]1C[C@H]3[C@H](N(C)C)C(O)=C(C(N)=O)C(=O)[C@@]3(O)C(O)=C1C2=O"
Result: 0.515

Ask: Provide only the value of recorded ED50 for C=C[C@]1(C)C[C@@H](OC(=O)CSC2CCN(C(=O)CCn3cnc4c(N5CCNCC5)nc(N)nc43)CC2)[C@@]2(C)C3C(=O)CC[C@@]3(CC[C@H]2C)[C@@H](C)[C@@H]1O (stereo partly drawn)
Result: 1.86

Ask: Read the entry "CN[C@H](CC(C)C)C(=O)N[C@H]1C(=O)N[C@@H](CC(N)=O)C(=O)N[C@H]2C(=O)N[C@H]3C(=O)N[C@H](C(=O)N[C@H](C(=O)O)c4cc(O)cc(O)c4-c4cc3ccc4O)[C@H](O)c3ccc(c(Cl)c3)Oc3cc2cc(c3O[C@@H]2O[C@H](CO)[C@@H](O)[C@H](O)[C@H]2O[C@H]2C[C@](C)(N)[C@H](O)[C@H](C)O2)Oc2ccc(cc2Cl)[C@H]1O" and write its reported ED50.
Result: 0.88

---

Test system: Streptococcus pneumoniae
Test Name: Antibacterial activity against penicillin-resistant Streptococcus pneumoniae KT2524 in mouse dosed iv 1 hr after infection
Type: functional
Metric: ED50

// worked examples, ED50 included
Compound Smiles | Measured On | ED50
C[C@H]1COc2c(N3CCN(C)CC3)c(F)cc3c(=O)c(C(=O)O)cn1c23.C[C@H]1COc2c(N3CCN(C)CC3)c(F)cc3c(=O)c(C(=O)O)cn1c23.O | Streptococcus pneumoniae | > 100 mg/kg
CN[C@H](CC(C)C)C(=O)N[C@H]1C(=O)N[C@@H](CC(N)=O)C(=O)N[C@H]2C(=O)N[C@H]3C(=O)N[C@H](C(=O)N[C@H](C(=O)O)c4cc(O)cc(O)c4-c4cc3ccc4O)[C@H](O)c3ccc(c(Cl)c3)Oc3cc2cc(c3O[C@@H]2O[C@H](CO)[C@@H](O)[C@H](O)[C@H]2O[C@H]2C[C@](C)(N)[C@H](O)[C@H](C)O2)Oc2ccc(cc2Cl)[C@H]1O | Streptococcus pneumoniae | 2.37 mg/kg

// switching to the query compound
Ask: Fill: ED50 (Streptococcus pneumoniae) for this compound "CC[C@H]1OC(=O)[C@H](C)[C@@H](O[C@H]2C[C@@](C)(OC)[C@@H](O)[C@H](C)O2)[C@H](C)[C@@H](O[C@@H]2O[C@H](C)C[C@H](N(C)C)[C@H]2O)[C@](C)(O)C[C@@H](C)C(=O)[C@H](C)[C@@H](O)[C@]1(C)O"
Result: > 100 mg/kg

---

Test system: Streptococcus pneumoniae
Test Name: microbe, parasite or virus in culture
Particulars: ATCC 49619
Each entry below carries its recorded log10 MIC.
The common logarithm of MIC in µg/mL is what is listed.

Known results for compounds:
Compound | log10 MIC
CC[C@]1(C)C[C@@H](OC(=O)CSc2nnc(N)[nH]2)[C@]2(C)[C@H](C)CC[C@]3(CCC(=O)[C@H]32)[C@@H](C)[C@@H]1O [AZAMULIN] | -0.30
CC[C@H]1OC(=O)[C@H](C)[C@@H](O[C@H]2C[C@@](C)(OC)[C@@H](O)[C@H](C)O2)[C@H](C)[C@@H](O[C@@H]2O[C@H](C)C[C@H](N(C)C)[C@H]2O)[C@](C)(O)C[C@@H](C)C(=O)[C@H](C)[C@@H](O)[C@]1(C)O [ERYTHROMYCIN] | -1.80
C=C[C@]1(C)C[C@@H](OC(=O)CSC2CCN(C(=O)CCn3cnc4c(N5CCNCC5)nc(N)nc43)CC2)[C@@]2(C)C3C(=O)CC[C@@]3(CC[C@H]2C)[C@@H](C)[C@@H]1O (stereo partly specified) | -1.20

Ask: Could you please provide reported log10 MIC for CO/N=C(\C(=O)N[C@@H]1C(=O)N2C(C(=O)O)=C(CSc3nc(=O)c(O)nn3C)CS[C@H]12)c1csc(N)n1 [CEFTRIAXONE] ? Thanks!
Result: -1.20

Ask: Give recorded log10 MIC. CN[C@H](CC(C)C)C(=O)N[C@H]1C(=O)N[C@@H](CC(N)=O)C(=O)N[C@H]2C(=O)N[C@H]3C(=O)N[C@H](C(=O)N[C@H](C(=O)O)c4cc(O)cc(O)c4-c4cc3ccc4O)[C@H](O)c3ccc(c(Cl)c3)Oc3cc2cc(c3O[C@@H]2O[C@H](CO)[C@@H](O)[C@H](O)[C@H]2O[C@H]2C[C@](C)(N)[C@H](O)[C@H](C)O2)Oc2ccc(cc2Cl)[C@H]1O [VANCOMYCIN]
Result: -0.60

Ask: Indicate its recorded log10 MIC; the compound in question is CN(C)c1ccc(O)c2c1C[C@H]1C[C@H]3[C@H](N(C)C)C(O)=C(C(N)=O)C(=O)[C@@]3(O)C(O)=C1C2=O [MINOCYCLINE]
Result: -1.49

---

Test system: Enterococcus faecium
Test Name: Antibacterial activity against vancomycin-resistant Enterococcus faecium KU1778 clinical isolate by broth microdilution method
Type: functional
Metric: MIC (µg/mL)
// return numeric value only (unit: µg/mL, not printed)

In the examples that follow, each entry is paired with its recorded MIC.
Molecule | Measured On | MIC (µg/mL)
CN(C)c1ccc(O)c2c1C[C@H]1C[C@H]3[C@H](N(C)C)C(O)=C(C(N)=O)C(=O)[C@@]3(O)C(O)=C1C2=O [MINOCYCLINE] | Enterococcus faecium | 0.063
C[C@H]1COc2c(N3CCN(C)CC3)c(F)cc3c(=O)c(C(=O)O)cn1c23.C[C@H]1COc2c(N3CCN(C)CC3)c(F)cc3c(=O)c(C(=O)O)cn1c23.O [LEVOFLOXACIN] | Enterococcus faecium | 64
CC[C@]1(C)C[C@@H](OC(=O)CSc2nnc(N)[nH]2)[C@]2(C)[C@H](C)CC[C@]3(CCC(=O)[C@H]32)[C@@H](C)[C@@H]1O [AZAMULIN] | Enterococcus faecium | 0.25

Ask: Give me measured MIC, please, for this molecule: C=C[C@]1(C)C[C@@H](OC(=O)CSC2CCN(C(=O)CCn3cnc4c(N5CCNCC5)nc(N)nc43)CC2)[C@@]2(C)C3C(=O)CC[C@@]3(CC[C@H]2C)[C@@H](C)[C@@H]1O (some centres not stated)
Result: 0.063

---

System: Clostridium perfringens
Test Name: Antibacterial activity against Clostridium perfringens GAI 5526 by broth microdilution method
Type: functional
Measured MIC, listed per entry.
The figure you give is taken to be in µg/mL; do not add the unit.

Molecule | Unit Abbreviation | MIC
C[C@H]1COc2c(N3CCN(C)CC3)c(F)cc3c(=O)c(C(=O)O)cn1c23.C[C@H]1COc2c(N3CCN(C)CC3)c(F)cc3c(=O)c(C(=O)O)cn1c23.O [LEVOFLOXACIN] | µg/mL | 0.25
CN(C)c1ccc(O)c2c1C[C@H]1C[C@H]3[C@H](N(C)C)C(O)=C(C(N)=O)C(=O)[C@@]3(O)C(O)=C1C2=O [MINOCYCLINE] | µg/mL | 0.063
CC1(C)S[C@@H]2[C@H](NC(=O)[C@H](N)c3ccccc3)C(=O)N2[C@H]1C(=O)O [AMPICILLIN] | µg/mL | 0.063
CC[C@H]1OC(=O)[C@H](C)[C@@H](O[C@H]2C[C@@](C)(OC)[C@@H](O)[C@H](C)O2)[C@H](C)[C@@H](O[C@@H]2O[C@H](C)C[C@H](N(C)C)[C@H]2O)[C@](C)(OC)C[C@@H](C)C(=O)[C@H](C)[C@@H](O)[C@]1(C)O [CLARITHROMYCIN] | µg/mL | 1
CN[C@H](CC(C)C)C(=O)N[C@H]1C(=O)N[C@@H](CC(N)=O)C(=O)N[C@H]2C(=O)N[C@H]3C(=O)N[C@H](C(=O)N[C@H](C(=O)O)c4cc(O)cc(O)c4-c4cc3ccc4O)[C@H](O)c3ccc(c(Cl)c3)Oc3cc2cc(c3O[C@@H]2O[C@H](CO)[C@@H](O)[C@H](O)[C@H]2O[C@H]2C[C@](C)(N)[C@H](O)[C@H](C)O2)Oc2ccc(cc2Cl)[C@H]1O [VANCOMYCIN] | µg/mL | 0.5

Continue with the next molecule.
Ask: Fill in reported MIC for this entry: C=C[C@]1(C)C[C@@H](OC(=O)CSC2CCN(C(=O)CCn3cnc4c(N5CCNCC5)nc(N)nc43)CC2)[C@@]2(C)C3C(=O)CC[C@@]3(CC[C@H]2C)[C@@H](C)[C@@H]1O (stereo partly specified)
Result: 0.063
